Attribution: the METLIN SMRT retention time set (Domingo-Almenara et al. 2019)

assay: gradient 5% acetonitrile 3 min, to 50% in 2 min, to 85% in 15 min, held 3 min, 100 µL/min; details: column: Zorbax Extend-C18 2.1 x 50 mm; eluents: water / acetonitrile, 0.1% formic acid
Here the recorded RP-LC retention time is given for each entry.

Previously resolved entries follow.
{"columns": ["COMPOUND", "RP-LC retention time"],
 "data": [
  ["O=C(Cn1cccc(-c2nc(-c3ccc(Br)cc3)no2)c1=O)Nc1ccccc1", "968 s"],
  ["COc1ccc2[nH]cc(CCn3ccc4c(nnc5ccnn54)c3=O)c2c1", "686 s"],
  ["CN1CCn2ccnc2C12CCN(C(=O)Nc1ccc(Cl)cc1C(F)(F)F)CC2", "650 s"],
  ["Cc1nnc(N2CCC(C(=O)N3CCOCC3)CC2)c2nn(-c3ccccc3)c(C)c12", "620 s"],
  ["CCNc1nc(NC(C)(C)C)nc(-n2cnc(SC)n2)n1", "873 s"]
]}

Q: Request the reported RP-LC retention time associated with COC(=O)c1c(C)[nH]c(C(=O)N2CCC(CC(=O)NCCC(C)N3CCCC3)CC2)c1C (centres undefined)
Result: 578 s

Q: Also O=S(=O)(c1cccnc1)N1CCCCC1c1nncn1CC1CC1 (centres undefined) ?
Result: 662 s

Q: Consider next the compound Cc1ccccc1CNC(=O)c1cn2ccncc2n1 in the same way.
Result: 692 s

* * *

test: gradient 5% acetonitrile 3 min, to 50% in 2 min, to 85% in 15 min, held 3 min, 100 µL/min; conditions: column: Zorbax Extend-C18 2.1 x 50 mm; eluents: water / acetonitrile, 0.1% formic acid
// RP-LC retention time lookup, one value per entry
Express your answer in s, writing the number without its unit.

Recorded results for 2 molecules are shown here.
{"columns": ["MOLECULE", "REPORTED ENDPOINT", "UNIT OF MEASURE", "VALUE OBSERVED"],
 "data": [
  ["Cn1nc(C(=O)N2CCCC(C(=O)Nc3ccccc3)C2)c2c1CCN(C(=O)C1CCCCC1)C2 (stereo not drawn)", "RP-LC retention time", "s", 796],
  ["CCc1c(C2CCN(C(=O)Nc3ccc(C)c(C)c3)CC2)noc1N", "RP-LC retention time", "s", 793]
]}

# evaluate next
Q: Endpoint output: RP-LC retention time of O=C(CCC1CCCN(C(=O)Nc2ccccc2)C1)NCc1ccc(F)cc1F (stereo not drawn) . Value?
Result: 816

* * *

experiment: gradient 5% acetonitrile 3 min, to 50% in 2 min, to 85% in 15 min, held 3 min, 100 µL/min; conditions: column: Zorbax Extend-C18 2.1 x 50 mm; eluents: water / acetonitrile, 0.1% formic acid
Entries and their RP-LC retention time values follow.
Numbers only; they are read as s.

{"columns": ["COMPOUND", "UNIT OF MEASURE", "VALUE OBSERVED"],
 "data": [
  ["Cc1cc(NC(=O)C2CCCN2S(=O)(=O)c2ccc(Cl)s2)n(C(C)C)n1 (centres undefined)", "s", 776],
  ["Cc1ccc(N2CCC(NC(=O)NCCc3ccccc3)C2=O)cc1C (centres undefined)", "s", 790],
  ["Cc1nc(-c2csc(S(=O)(=O)N3CCCC(C(=O)Nc4ccc(Cl)cc4F)C3)c2)no1 (centres undefined)", "s", 1050],
  ["CCn1cc(CCNS(=O)(=O)c2cccc(C#N)c2)c2cccnc21", "s", 733],
  ["CN1CCN(c2ccc(CNC(=O)C3CCCN(c4nccnc4Oc4ccccc4)C3)cc2)CC1 (centres undefined)", "s", 664],
  ["O=C(Nc1cccc2cccnc12)c1ccc(N2C(=O)[C@@H]3[C@H](C2=O)[C@@H]2C=C[C@H]3C2)cc1", "s", 941],
  ["CC(C)CN1Cc2ccccc2-n2ccnc2C12CCN(C(=O)c1ccc(F)cc1)CC2", "s", 739],
  ["COCCNC(=O)c1ccc(-c2ccc(N3CCCCC3)nc2)cc1", "s", 603]
]}

Q: Any idea what RP-LC retention time was measured for CCOC(=O)CCNC(=O)N1CCC(N2C(=O)C3(CCCC3)C2c2scnc2C)CC1 (centres undefined) ?
Result: 685

Q: Then what about the compound CC(C)Cn1c(=O)c(N2CCC(NC(=O)NCc3ccccc3)CC2)nc2ccccc21 ?
Result: 980

Q: Same question for NC(=O)CCC(C(=O)O)N1C(=O)C2C3CCC(C3)C2C1=O (centres undefined) please.
Result: 638
